B1: FAM189A2 (parent)
chain: PRCDLVDLGEGKICFCCEEFQPAK

Variants of: B1
Experiment: protein stability index of a GFP-peptide fusion (GPS, HEK-293T) (PSI 1-6); higher = more stable;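 further: lentivirally expressed fusions sorted by FACS into six bins by GFP to DsRed ratio, PSI derived from sequencing read proportions per bin multiplied by bin number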
Details: c terminus: a fixed tail appended
ENDPOINT: protein stability index
The reply should be a number, written without any unit.

The examples below pair each entry with its known result.
{"MUTATIONS": "G11W", "protein stability index": 2.69}
{"MUTATIONS": "K24M", "protein stability index": 2.32}
{"MUTATIONS": "K12L", "protein stability index": 2.42}
{"MUTATIONS": "R2G", "protein stability index": 3.18}
{"MUTATIONS": "L5S", "protein stability index": 3.03}
{"MUTATIONS": "D4H", "protein stability index": 2.85}

stdin: What does the record list as protein stability index for `C14E` ?
stdout: 4.24

stdin: Give the measured protein stability index of `K12E` .
stdout: 3.6

stdin: Find the recorded protein stability index belonging to `D4E` and report it.
stdout: 3.27

stdin: What does the data say about its protein stability index? Entry: `F20G`
stdout: 3.59

stdin: I am curious: what protein stability index value has been reported for `D4I` ?
stdout: 1.57

stdin: Quick check: protein stability index of `A23K` ?
stdout: 3.36

stdin: For the variant shown here, `Q21Y` , give the reported protein stability index.
stdout: 2.33

stdin: Look up protein stability index: `D4T`
stdout: 2.7

stdin: Returns the measured protein stability index for the input variant. Input: `F20I`
stdout: 3.6

stdin: Name the recorded protein stability index for `G9N` .
stdout: 2.28
